test details: Cytotoxicity against human MT4 cells infected with HTLV-1 after 96 hrs by MTT assay
Assay type: cell-based
Hi there, I'd appreciate the recorded CC50 at 96 h for every entry that follows.
API: value field is a number in µM; no unit string.

Specify measured CC50 at 96 h for "N#C/C(=C\c1ccc(Cl)cc1Cl)n1nnc2ccccc21" .
6

Supply reported CC50 at 96 h belonging to this compound: "Cc1ccc(/C=C(\C#N)n2nnc3cc(Cl)c(Cl)cc32)cc1"
1.7

Quote CC50 at 96 h reported for "Cc1cc2nnn(/C(C#N)=C/c3ccc4c(c3)OCO4)c2cc1C" please.
1.3

Please give measured CC50 at 96 h of the following entry: "N#C/C(=C\c1ccc(Cl)cc1)n1nc2ccccc2n1"
16

Respond only with CC50 at 96 h recorded for "COc1ccc(/C=C(\C#N)n2nnc3ccc(C(F)(F)F)cc32)cc1"
200

Give a short answer stating reported CC50 at 96 h for "N#C/C(=C\c1cccc([N+](=O)[O-])c1)n1nnc2ccccc21" .
0.4

Kindly indicate its recorded CC50 at 96 h. Item: "N#C/C(=C\c1ccccc1)n1nc2ccccc2n1"
12

Quickly give me recorded CC50 at 96 h for "N#C/C(=C\c1ccc2c(c1)OCO2)n1nnc2ccccc21"
0.1

Using the record for "N#C/C(=C\c1ccc2c(c1)OCO2)n1nnc2ccc(C(F)(F)F)cc21" , state its measured CC50 at 96 h.
52

Query CC50 at 96 h for COc1cc([C@@H]2c3cc4c(cc3[C@@H](O[C@@H]3O[C@@H]5CO[C@@H](C)O[C@H]5[C@H](O)[C@H]3O)[C@H]3COC(=O)[C@H]23)OCO4)cc(OC)c1O [ETOPOSIDE]
0.09

Consider the compound "COc1ccccc1/C=C(\C#N)n1nnc2ccccc21" and give its recorded CC50 at 96 h.
8.3
